- Test system: CRL-7250
- Assay method text: Cytotoxic Profiling of Annotated Libraries Using Quantitative High-Throughput Screening (AID 1296008); further: on the % scale 0 is the no-effect control and ±100 the full control effect; nearly all actives have a fitted effect of over 60% in size
- Test settings: Five cell lines viability, CellTiter-Glo ATP luminescence, 48-72 h; hits give low values
Results filed as inconclusive are left out.
Entries and their max response
Express your answer in %, writing the number without its unit.

## Input Recall and state the measured max response for O=C(O)c1ccc(CN2CCC(CN[C@@H]3C[C@H]3c3ccccc3)CC2)cc1 .
## Output -10.5

## Input Please supply the value of reported max response for the item O=C(O)c1cc(I)ccc1NC(=O)[C@H](Cc1ccccc1)NCc1ccccc1
## Output -2.69

## Input # return recorded max response for input CC(C(O)/C=C/C(C)(C)O)C1CCC2(C)C3C(=O)C=C4C(CCC(O)C4(C)C)C3(C)CCC12C (stereo not drawn)
## Output -0.192

## Input Give a short answer stating reported max response for COc1cccc2cc3c(c(O[C@@H]4O[C@H](CO[C@@H]5O[C@H](CO)[C@@H](O)[C@H](O)[C@H]5O)[C@@H](O)[C@H](O)[C@H]4O)c12)C(C)OC3=O (stereo partly drawn) .
## Output -0.694

## Input Please report max response for the following compound: C/C=C/c1cc(OC)c2c(c1)[C@@H](C)[C@@H](c1ccc(O)c(OC)c1)O2
## Output -4.41

## Input Fill in reported max response for this entry: COc1ccc(C(O)C(C)OC2OC(CO)C(O)C(O)C2O)cc1 (stereo not drawn)
## Output -9.11

## Input Give the reported value of max response for this record: CN[C@H](CC(C)C)C(=O)N[C@H]1C(=O)N[C@@H](CC(N)=O)C(=O)N[C@H]2C(=O)N[C@H]3C(=O)N[C@H](C(=O)N[C@H](C(=O)O)c4cc(O)cc(O)c4-c4cc3ccc4O)[C@H](O[C@H]3C[C@](C)(N)[C@@H](O)[C@H](C)O3)c3ccc(c(Cl)c3)Oc3cc2cc(c3O[C@@H]2O[C@H](CO)[C@@H](O)[C@H](O)[C@H]2O[C@H]2C[C@](C)(NCc3ccc(-c4ccc(Cl)cc4)cc3)[C@@H](O)[C@H](C)O2)Oc2ccc(cc2Cl)[C@H]1O
## Output 0.406

## Input Identify max response associated with the compound O=C(c1ccc2nccnc2c1)N1CCCCC1
## Output -4.12
